assay: Determination of drug solubility; format: physicochemical; conditions: organic solvent (not named), organic solvent or mixture, thermodynamic from solid; organic solvent; read-out: organic solubility
MEASURED_PARAMETER: solubility

Field solubility (entry CC(C)OC(=O)CCC/C=C\C[C@@H]1[C@@H](CC[C@@H](O)CCc2ccccc2)[C@H](O)C[C@@H]1O [Latanoprost, latanoprost, reference compound] ) reads > 50 mg/mL

###

target: bovine erythrocyte carbonic anhydrase II (Bos taurus, UniProt P00921)
Sequence (P00921 whole entry): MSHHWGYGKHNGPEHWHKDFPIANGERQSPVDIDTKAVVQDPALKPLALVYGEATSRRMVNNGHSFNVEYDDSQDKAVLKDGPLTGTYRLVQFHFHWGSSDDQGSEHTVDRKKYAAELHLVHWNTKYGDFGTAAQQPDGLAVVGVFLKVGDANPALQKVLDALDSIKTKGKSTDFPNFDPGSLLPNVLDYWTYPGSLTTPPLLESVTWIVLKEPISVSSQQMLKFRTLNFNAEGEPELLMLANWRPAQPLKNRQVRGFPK
pIC50: −log10 of the molar value.
MEASURED_PARAMETER: pIC50

Look over these answered cases.
COMPOUND	pIC50
CCN[C@H]1CN(CCCOC)S(=O)(=O)c2sc(S(=O)(=O)NC(=O)[C@H](C)OC(=O)[C@H](C)OC(=O)[C@H](C)OC(=O)[C@H](C)OC(C)=O)cc21 [37-1, brinzolamide-acetyl PLA (n=4)]	7.38
CCN[C@H]1CN(CCCOC)S(=O)(=O)c2sc(S(=O)(=O)NC(=O)[C@H](C)O)cc21 [32-3, brinzolamide-PLA (n=1)]	8.24
CCN[C@H]1CN(CCCOC)S(=O)(=O)c2sc(S(=O)(=O)NC(=O)[C@H](C)OC(=O)[C@H](C)OC(=O)[C@H](C)OC(=O)[C@H](C)OC(=O)[C@H](C)OC(=O)[C@H](C)OC(C)=O)cc21 [39-1, brinzolamide-acetyl PLA (n=6)]	6.77

(1) CCN[C@H]1C[C@H](C)S(=O)(=O)c2sc(S(=O)(=O)NC(=O)[C@H](C)OC(=O)[C@H](C)OC(=O)[C@H](C)OC(=O)[C@H](C)OC(C)=O)cc21 [27-1]
(2) CCN[C@H]1CN(CCCOC)S(=O)(=O)c2sc(S(=O)(=O)NC(=O)[C@H](C)OC(=O)[C@H](C)O)cc21 [33-2, brinzolamide-PLA (n=2)]
(3) CCN[C@H]1C[C@H](C)S(=O)(=O)c2sc(S(=O)(=O)NC(=O)[C@H](C)OC(=O)[C@H](C)OC(=O)[C@H](C)OC(=O)[C@H](C)OC(=O)CCC(=O)Oc3ccc4c(c3)/C(=C/c3[nH]c(C)c(C(=O)NCCN(CC)CC)c3C)C(=O)N4)cc21 [58-5]
(4) CCN[C@H]1CN(CCCOC)S(=O)(=O)c2sc(S(=O)(=O)NC(=O)[C@H](C)OC(=O)[C@H](C)OC(=O)[C@H](C)O)cc21 [34-2, brinzolamide-PLA (n=3)]
(5) CCN[C@H]1C[C@H](C)S(=O)(=O)c2sc(S(=O)(=O)NC(=O)[C@H](C)OC(=O)[C@H](C)OC(=O)[C@H](C)OC(=O)[C@H](C)OC(=O)[C@H](C)OC(C)=O)cc21 [28-1, dorzolamide-acetyl PLA (n=5)]
Prompt line: Exam item: list the entries in increasing order of pIC50. Please, when replying, give the labels in the order that was requested.
Response line: 3, 5, 1, 4, 2
(3: 6.65, 5: 7.05, 1: 7.36, 4: 7.67, 2: 7.97)

###

// IC50 collected for bovine erythrocyte carbonic anhydrase II (Bos taurus)
MEASURED_PARAMETER: IC50 (nM)

(P) CCN[C@H]1CN(CCCOC)S(=O)(=O)c2sc(S(=O)(=O)NC(=O)[C@H](C)OC(=O)[C@H](C)OC(=O)[C@H](C)OC(=O)[C@H](C)OC(=O)[C@H](C)OC(C)=O)cc21 [38-1, brinzolamide-acetyl PLA (n=5)]
(Q) CCN[C@H]1C[C@H](C)S(=O)(=O)c2sc(S(=O)(=O)NC(=O)[C@H](C)O)cc21 [19-3, dorzolamide-PLA (n=1)]
(R) CCN[C@H]1C[C@H](C)S(=O)(=O)c2sc(S(=O)(=O)NC(=O)[C@H](C)OC(=O)[C@H](C)OC(=O)[C@H](C)OC(=O)CCC(=O)Oc3ccc4c(c3)/C(=C/c3[nH]c(C)c(C(=O)NCCN(CC)CC)c3C)C(=O)N4)cc21
Prompt line: List the 3 entries from lowest IC50 to highest IC50 value. Please, when replying, give the labels in the order that was requested.
Response line: Q, P, R
(Q: 3.32 nM, P: 102 nM, R: 184 nM)
